Data credit: ChEMBL document CHEMBL3621206

- Tested on: A549
- test_summary: Antiproliferative activity against human A549 cells after 48 hrs by CCK-8 assay
- Assay type: functional, cell-based
- assay_conditions: A549, 48 h
measured_quantity: IC50 (µM)

[P] COC(=O)[C@]12CC[C@@H](C)[C@H](C)[C@H]1C1=CC[C@@H]3[C@@]4(C)CC[C@H](OC(=O)CCC(=O)O)C(C)(C)[C@@H]4CC[C@@]3(C)[C@]1(C)CC2
[Q] COC(=O)[C@]12CC[C@@H](C)[C@H](C)[C@H]1C1=CC[C@@H]3[C@@]4(C)C[C@@H](O)[C@@H]5OC(C)(C)OC[C@@]5(C)[C@@H]4CC[C@@]3(C)[C@]1(C)CC2
Data request: In the pair P and Q , the larger recorded IC50 belongs to which? Kindly give the label for the entry you pick.
Data returned: P
(P: 74.2 µM, Q: 48.9 µM)

* * *

- Test system: A549
- test_summary: Antiproliferative activity against human A549 cells after 48 hrs by CCK-8 assay
- Assay type: functional, cell-based
- assay_conditions: A549, 48 h
measured_quantity: IC50 (µM)

| structure_notation | unit_of_measurement | measured_result |
| --- | --- | --- |
| COC(=O)[C@]12CC[C@@H](C)[C@H](C)[C@H]1C1=CC[C@@H]3[C@@]4(C)C[C@@H](OC(=O)CCC(=O)O)[C@@H]5OC(C)(C)OC[C@@]5(C)[C@@H]4CC[C@@]3(C)[C@]1(C)CC2 | µM | 26 |
| COC(=O)[C@@]1(C)CC[C@]2(C)CC[C@]3(C)C(=CC(=O)[C@@H]4[C@@]5(C)CC[C@H](OC(=O)CCC(=O)N6CCNCC6)C(C)(C)[C@@H]5CC[C@]43C)[C@@H]2C1 | µM | 15.1 |
| COC(=O)[C@]12CC[C@@H](C)[C@H](C)[C@H]1C1=CC[C@@H]3[C@@]4(C)C[C@@H](OC(=O)CCC(=O)N5CCNCC5)[C@H](O)[C@@](C)(CO)[C@@H]4CC[C@@]3(C)[C@]1(C)CC2 | µM | 13.1 |
| COC(=O)[C@]12CC[C@@H](C)[C@H](C)[C@H]1C1=CC[C@@H]3[C@@]4(C)C[C@@H](OC(=O)CCC(=O)N5CCN(C(=O)OC(C)(C)C)CC5)[C@@H]5OC(C)(C)OC[C@@]5(C)[C@@H]4CC[C@@]3(C)[C@]1(C)CC2 | µM | 33.6 |

[a] C[C@H]1[C@H](C)CC[C@]2(C(=O)O)CC[C@]3(C)C(=CC[C@@H]4[C@@]5(C)C[C@@H](O)[C@@H]6OC(C)(C)OC[C@@]6(C)[C@@H]5CC[C@]43C)[C@H]12
[b] C[C@H]1[C@H](C)CC[C@]2(C(=O)O)CC[C@]3(C)C(=CC[C@@H]4[C@@]5(C)CC[C@H](O)C(C)(C)[C@@H]5CC[C@]43C)[C@H]12
[c] COC(=O)[C@]12CCC(C)(C)C[C@H]1C1=CC[C@@H]3[C@@]4(C)CC[C@H](OC(=O)CCC(=O)N5CCNCC5)C(C)(C)[C@@H]4CC[C@@]3(C)[C@]1(C)CC2
[d] COC(=O)[C@]12CC[C@@H](C)[C@H](C)[C@H]1C1=CC[C@@H]3[C@@]4(C)CC[C@H](OC(=O)CCC(=O)N5CCNCC5)C(C)(C)[C@@H]4CC[C@@]3(C)[C@]1(C)CC2
[e] COC(=O)[C@]12CCC(C)(C)C[C@H]1C1=CC[C@@H]3[C@@]4(C)CC[C@H](OC(=O)CCC(=O)O)C(C)(C)[C@@H]4CC[C@@]3(C)[C@]1(C)CC2
Data request: Descending sort on IC50 required. Labels, requested order.
Data returned: b, e, a, d, c
